- SYSTEM_UNDER_TEST: human COX-2 (143.98.2 from human osteosarcoma) (Homo sapiens, UniProt P35354)
- Construct: human COX-2 (143.98.2 from human osteosarcoma); endogenous in cells; host or cells: 143.98.2 (human osteosarcoma)
- Sequence (P35354 18-604): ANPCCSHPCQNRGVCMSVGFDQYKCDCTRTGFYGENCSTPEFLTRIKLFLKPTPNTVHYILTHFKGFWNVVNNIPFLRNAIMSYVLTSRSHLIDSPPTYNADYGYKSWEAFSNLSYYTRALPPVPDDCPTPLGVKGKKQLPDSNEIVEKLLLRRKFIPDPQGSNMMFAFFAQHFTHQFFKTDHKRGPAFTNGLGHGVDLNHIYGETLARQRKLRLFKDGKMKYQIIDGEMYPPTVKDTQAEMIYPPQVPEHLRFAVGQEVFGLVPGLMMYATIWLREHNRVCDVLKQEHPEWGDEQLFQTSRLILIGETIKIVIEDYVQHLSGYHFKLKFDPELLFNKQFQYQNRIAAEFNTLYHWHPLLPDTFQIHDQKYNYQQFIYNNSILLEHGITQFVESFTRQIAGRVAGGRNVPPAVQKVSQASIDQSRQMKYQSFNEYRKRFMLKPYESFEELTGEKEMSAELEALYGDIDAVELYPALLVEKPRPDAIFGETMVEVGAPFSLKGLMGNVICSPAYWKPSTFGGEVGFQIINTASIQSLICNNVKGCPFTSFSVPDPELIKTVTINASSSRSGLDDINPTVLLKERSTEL
- PROTOCOL_DESCRIPTION: Inhibition of COX-2 activity in human cell line (PGE2 production after arachidonic acid)
- Format: cell-based
- MEASUREMENT_SETUP: 0.1 μM test compound; 143.98.2 osteosarcoma cells; PGE2 after 10 μM arachidonic acid
Could you label it Fulfilled if measured inhibition at 0.1 µM is 90% or higher, and Not fulfilled otherwise?

Qu. Please check the record CS(=O)(=O)c1ccc(-n2cnc(Cl)c2-c2cc(F)cc(F)c2)cc1 [Example 4] and state if its inhibition at 0.1 µM is at or above 90%.
Ans. Not fulfilled

Qu. Please check the record CC(C)c1ccc(-c2c(Cl)ncn2-c2ccc(S(C)(=O)=O)cc2)cc1 [Example 9] and state if its inhibition at 0.1 µM is at or above 90%.
Ans. Not fulfilled

Qu. Please check the record CCOc1ccc(-c2c(Cl)ncn2-c2ccc(S(N)(=O)=O)cc2)cc1Cl [Example 13] and state if its inhibition at 0.1 µM is at or above 90%.
Ans. Fulfilled

----------
- SYSTEM_UNDER_TEST: human COX-1 (U-937 from human histiocitic lymphoma) (Homo sapiens, UniProt P23219)
- Construct: cell lines expressing human COX-1 (U-937 from human histiocitic lymphoma); endogenous in cells; host or cells: U-937 (human histiocytic lymphoma)
- Sequence (P23219 24-599): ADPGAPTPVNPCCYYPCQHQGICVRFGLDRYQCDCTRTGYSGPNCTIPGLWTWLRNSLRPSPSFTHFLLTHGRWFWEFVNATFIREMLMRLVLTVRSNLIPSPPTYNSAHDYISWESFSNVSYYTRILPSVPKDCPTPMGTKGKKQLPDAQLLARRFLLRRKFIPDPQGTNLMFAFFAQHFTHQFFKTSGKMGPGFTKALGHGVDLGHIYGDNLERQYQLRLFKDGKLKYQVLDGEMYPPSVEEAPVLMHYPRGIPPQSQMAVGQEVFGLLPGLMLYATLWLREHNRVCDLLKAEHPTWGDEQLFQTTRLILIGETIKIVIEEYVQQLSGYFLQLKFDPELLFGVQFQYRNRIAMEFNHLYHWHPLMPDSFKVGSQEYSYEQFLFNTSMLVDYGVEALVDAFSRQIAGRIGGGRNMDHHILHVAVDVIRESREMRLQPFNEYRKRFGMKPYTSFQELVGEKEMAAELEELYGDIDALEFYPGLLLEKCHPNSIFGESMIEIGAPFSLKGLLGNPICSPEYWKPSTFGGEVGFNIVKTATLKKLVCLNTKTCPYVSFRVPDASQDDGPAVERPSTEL
- PROTOCOL_DESCRIPTION: Inhibition of COX-1 activity in human cell line (PGE2 production after arachidonic acid)
- Format: cell-based
- MEASUREMENT_SETUP: 0.1 μM test compound; U-937 cells; PGE2 after 10 μM arachidonic acid
Structures can show the parent of a compound that is named as a salt.
ASSAY_METRIC: inhibition at 0.1 µM (%)
Value expressed in %; do not type the unit.

Qu. Give human COX-1 (U-937 from human histiocitic lymphoma) (Homo sapiens, UniProt P23219) inhibition at 0.1 µM for the following molecule: CCOc1ccc(-c2c(Cl)ncn2-c2ccc(S(N)(=O)=O)cc2)cc1Cl [Example 13]
Ans. 0

Qu. Give human COX-1 (U-937 from human histiocitic lymphoma) (Homo sapiens, UniProt P23219) inhibition at 0.1 µM for the following molecule: CCOc1ccc(-c2c(Cl)ncn2-c2ccc(S(N)(=O)=O)cc2)cc1F [Example 12]
Ans. 0

Qu. Give human COX-1 (U-937 from human histiocitic lymphoma) (Homo sapiens, UniProt P23219) inhibition at 0.1 µM for the following molecule: CCOc1ccc(-c2c(Cl)ncn2-c2ccc(S(C)(=O)=O)cc2)cc1F [Example 3]
Ans. 15

Qu. Give human COX-1 (U-937 from human histiocitic lymphoma) (Homo sapiens, UniProt P23219) inhibition at 0.1 µM for the following molecule: COc1c(Cl)cc(-c2c(Cl)ncn2-c2ccc(S(C)(=O)=O)cc2)cc1Cl [Example 8]
Ans. 0

Qu. Give human COX-1 (U-937 from human histiocitic lymphoma) (Homo sapiens, UniProt P23219) inhibition at 0.1 µM for the following molecule: CCOc1ccc(-c2c(Cl)ncn2-c2ccc(S(C)(=O)=O)cc2)cc1Cl [Example 6]
Ans. 0

Qu. Give human COX-1 (U-937 from human histiocitic lymphoma) (Homo sapiens, UniProt P23219) inhibition at 0.1 µM for the following molecule: COc1c(Cl)cc(-c2c(Cl)ncn2-c2ccc(S(N)(=O)=O)cc2)cc1Cl [Example 15, Hydrochloride]
Ans. 0

Qu. Give human COX-1 (U-937 from human histiocitic lymphoma) (Homo sapiens, UniProt P23219) inhibition at 0.1 µM for the following molecule: CC(C)c1ccc(-c2c(Cl)ncn2-c2ccc(S(C)(=O)=O)cc2)cc1 [Example 9]
Ans. 0

Qu. Give human COX-1 (U-937 from human histiocitic lymphoma) (Homo sapiens, UniProt P23219) inhibition at 0.1 µM for the following molecule: COc1cc(-c2c(Cl)ncn2-c2ccc(S(N)(=O)=O)cc2)ccc1F [Example 11]
Ans. 0

Qu. Give human COX-1 (U-937 from human histiocitic lymphoma) (Homo sapiens, UniProt P23219) inhibition at 0.1 µM for the following molecule: COc1ccc(-c2c(Cl)ncn2-c2ccc(S(C)(=O)=O)cc2)cc1Cl [Example 5]
Ans. 17

Qu. Give human COX-1 (U-937 from human histiocitic lymphoma) (Homo sapiens, UniProt P23219) inhibition at 0.1 µM for the following molecule: CS(=O)(=O)c1ccc(-n2cnc(Cl)c2-c2cc(F)cc(F)c2)cc1 [Example 4]
Ans. 2

Qu. Give human COX-1 (U-937 from human histiocitic lymphoma) (Homo sapiens, UniProt P23219) inhibition at 0.1 µM for the following molecule: COc1cc(-c2c(Cl)ncn2-c2ccc(S(C)(=O)=O)cc2)ccc1F [Example 2]
Ans. 0

Qu. Give human COX-1 (U-937 from human histiocitic lymphoma) (Homo sapiens, UniProt P23219) inhibition at 0.1 µM for the following molecule: COc1ccc(-c2c(Cl)ncn2-c2ccc(S(N)(=O)=O)cc2)cc1Cl [Example 14]
Ans. 8

Qu. Give human COX-1 (U-937 from human histiocitic lymphoma) (Homo sapiens, UniProt P23219) inhibition at 0.1 µM for the following molecule: CCCc1ccc(-c2c(Cl)ncn2-c2ccc(S(C)(=O)=O)cc2)cc1 [Example 16]
Ans. 0

Qu. Give human COX-1 (U-937 from human histiocitic lymphoma) (Homo sapiens, UniProt P23219) inhibition at 0.1 µM for the following molecule: CC(C)Oc1ccc(-c2c(Cl)ncn2-c2ccc(S(C)(=O)=O)cc2)cc1 [Example 1]
Ans. 0
